Please go through the items and note down their IC50.
# TEST TARGET: GRK2 (Homo sapiens, UniProt P25098)
# Construct: purchased SignalChem A14-10G
# Sequence (P25098 whole entry): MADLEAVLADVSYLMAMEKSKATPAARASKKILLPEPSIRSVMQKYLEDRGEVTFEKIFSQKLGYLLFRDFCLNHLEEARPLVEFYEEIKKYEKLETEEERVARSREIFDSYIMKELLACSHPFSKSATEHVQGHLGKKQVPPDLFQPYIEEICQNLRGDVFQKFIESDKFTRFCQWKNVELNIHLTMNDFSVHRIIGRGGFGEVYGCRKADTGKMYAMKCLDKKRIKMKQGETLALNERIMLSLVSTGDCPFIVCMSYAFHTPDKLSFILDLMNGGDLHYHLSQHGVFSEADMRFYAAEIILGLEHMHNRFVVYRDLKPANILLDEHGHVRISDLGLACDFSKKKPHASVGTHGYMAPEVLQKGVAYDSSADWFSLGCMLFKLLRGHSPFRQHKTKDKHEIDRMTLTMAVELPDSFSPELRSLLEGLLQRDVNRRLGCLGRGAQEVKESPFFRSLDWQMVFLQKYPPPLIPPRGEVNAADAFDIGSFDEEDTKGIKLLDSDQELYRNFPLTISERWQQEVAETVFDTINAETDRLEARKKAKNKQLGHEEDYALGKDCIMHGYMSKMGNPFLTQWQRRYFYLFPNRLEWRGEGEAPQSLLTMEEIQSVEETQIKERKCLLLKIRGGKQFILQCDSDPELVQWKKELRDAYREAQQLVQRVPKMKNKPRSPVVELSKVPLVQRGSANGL
# EXPERIMENT DESCRIPTION: ADPGlo GRK2 Inhibition Assay (Example 8)
# Format: biochemical
# STATED CONDITIONS: Enzyme Assay A, ADPGlo (Example 8); read-out: A: Enzymatic GRK2: IC50 (nM) (Example 8)
# Procedure: HTS was performed using 1 μM compound. Compounds were dissolved in 100% DMSO, serially diluted tree-fold from 100 μM concentration to 46 nM and transferred (50 nL) into assay ready plate. Materials: GRK2 was purchased from SignalChem (Cat #A14-10G, Lot #X^645-3). […] HTS protocol: Take 384 well plate with 50 nL of compound in columns 3-22/DMSO solution 1-2,23-24. […] Read plate in Luminescent modeon BMG PheraStar FSX (gain=3600). Data Analysis: Data were analyzed in GraphPad Prism 8.0.2. […]
Report the figure in nM without appending any unit label.

query: Need IC50, item Cn1c(CNc2cccc(C(=O)C[C@H]3CCCc4cccnc43)c2)nnc1-c1ccncn1
result: 20

query: Next compound up: COCCOc1ccc(CNC(=O)c2cccc(NCc3nnc(-c4ccncn4)n3C)c2)cc1
result: 20.4

query: Next compound up: [2H]C([2H])(Nc1cccc(C(=O)NCc2ccncc2CC)c1)c1nnc(-c2ccncn2)n1C
result: 20.2

* * *

Please go through the items and note down their IC50.
# TEST TARGET: GRK2 (Homo sapiens, UniProt P25098)
# Construct: purchased SignalChem A14-10G
# EXPERIMENT DESCRIPTION: GRK2 Inhibition Assay (TR-FRET, Example 7)
# Format: biochemical
# STATED CONDITIONS: 1 nM GRK2, 7 μM ATP, TR-FRET; read-out: GRK2 IC50 (nM) (Example 7)
Report the figure in nM without appending any unit label.

query: Quick check: IC50 on GRK2 (Homo sapiens, UniProt P25098), item Cn1c(CNc2cccc(C(=O)N[C@H]3CCOc4ccccc43)c2)nnc1-c1ccncn1 ?
result: 10

query: Next molecule up: Cn1c(CNc2cccc(C(=O)NCc3cccnc3C(F)(F)F)c2)nnc1-c1ccncn1
result: 28

query: Next molecule up: COc1ncccc1CNC(=O)c1cccc(NCc2nnc(-c3ccncc3)[nH]2)c1
result: 5.8

query: Next molecule up: Cn1c(CNc2cccc(C(=O)NCc3cccc(F)c3)c2)nnc1-c1ccncn1
result: 56

* * *

# TEST TARGET: GRK2 (Homo sapiens, UniProt P25098)
# Construct: purchased SignalChem A14-10G
# EXPERIMENT DESCRIPTION: ADPGlo GRK2 Inhibition Assay (Example 8)
# Format: biochemical
# STATED CONDITIONS: ADPGlo GRK2 enzyme assay; read-out: A: Enzymatic GRK2: IC50 (nM) (Example 8)
# Protocol: HTS was performed using 1 μM compound. Compounds were dissolved in 100% DMSO, serially diluted tree-fold from 100 μM concentration to 46 nM and transferred (50 nL) into assay ready plate. Materials: GRK2 was purchased from SignalChem (Cat #A14-10G, Lot #X^645-3). […] HTS protocol: Take 384 well plate with 50 nL of compound in columns 3-22/DMSO solution 1-2,23-24. […] Read plate in Luminescent modeon BMG PheraStar FSX (gain=3600). Data Analysis: Data were analyzed in GraphPad Prism 8.0.2. […]
Lab note: compare IC50 with 70 nM, writing 1.0 if less and 0.0 if equal or more.

query: Check if IC50 falls below 70 nM for Cn1c(CNc2cccc(C(=O)NC3(CO)CCc4ccccc43)c2)cnc1-c1ccncn1 (stereo not drawn) .
result: 0.0

query: Next compound up: CN(C)CCNc1ccccc1CNC(=O)c1cccc(NCc2nnc(-c3ccncn3)n2C)c1
result: 1.0

query: Next compound up: COc1ccncc1CNC(=O)c1cccc(NCc2nnc(-c3ccncn3)n2C)c1
result: 1.0

query: Next compound up: Cn1c(CNc2cccc(C(=O)NCc3cc4c(nc3O)CCCC4)c2)nnc1-c1ccncn1
result: 0.0

query: Next compound up: C#COc1ccc(C(=O)c2ccc(OCCCCC(=O)NCCOCCOCCOc3cccc(CNC(=O)c4cccc(NCc5nnc(-c6ccncn6)n5C)c4)c3)cc2)cc1
result: 0.0

query: Next compound up: Cn1c(CNc2cccc(C(=O)NCc3ccncc3-c3cc[nH]n3)c2)nnc1-c1ccncn1
result: 1.0

query: Next compound up: CCCCCOc1ccc2c(c1)[C@H](NC(=O)c1cccc(NCc3nnc(-c4ccncn4)n3C)c1)CCO2
result: 0.0

query: Next compound up: CCc1n[nH]c(=O)c(CNC(=O)c2cccc(NCc3nnc(-c4ccncn4)n3C)c2)c1CC
result: 0.0

query: Next compound up: Cn1c(CNc2cccc(C(=O)NCc3ccccc3CS(=O)(=O)N3CCCC3)c2)nnc1-c1ccncn1
result: 0.0

query: Next compound up: COc1nccc(C)c1CNC(=O)c1cccc(NCc2nnc(-c3ccncn3)n2C)c1
result: 1.0

query: Next compound up: Cc1cncc(C(C)NC(=O)c2cccc(NCc3nnc(-c4ccncn4)n3C)c2)c1 (stereo not drawn)
result: 1.0

query: Next compound up: Cn1c(CNc2cccc(C(=O)NCc3cc(Br)cnc3O)c2)nnc1-c1ccncn1
result: 0.0

query: Next compound up: Cc1ccc(C#N)cc1CNC(=O)c1cccc(NCc2nnc(-c3ccncc3)n2CCO)c1
result: 1.0

query: Next compound up: Cn1c(CNc2cccc(C(=O)NCc3cnc4ccccn34)c2)nnc1-c1ccncc1F
result: 1.0

query: Next compound up: Cn1ccnc1C(NC(=O)c1cccc(NCc2nnc(-c3ccncn3)n2C)c1)C1CC1 (stereo not drawn)
result: 1.0

query: Next compound up: CCOc1cccc(CNC(=O)c2cccc(NCc3nnc(-c4ccncn4)n3C)c2)c1
result: 0.0

query: Next compound up: Cn1c(CNc2cccc(C(=O)N[C@@H](C#N)c3cc(F)ccc3F)c2)nnc1-c1ccncn1
result: 1.0

query: Next compound up: Cn1c(CNc2cccc(C(=O)NCC3Cc4ccccc4O3)c2)nnc1-c1ccncn1 (stereo not drawn)
result: 0.0

query: Next compound up: CCCCCOc1ccc2c(c1)[C@@H](NC(=O)c1cccc(NCc3nnc(-c4ccncn4)n3C)c1)CCO2
result: 1.0

query: Next compound up: Cn1c(CNc2cccc(C(=O)NCc3ccccc3S(C)(=O)=O)c2)nnc1-c1ccncn1
result: 1.0

query: Next compound up: Cn1c(CNc2cccc(C(=O)NCc3ccc(O)c(F)c3)c2)nnc1-c1ccncn1
result: 0.0

query: Next compound up: COc1cccc(C)c1CNC(=O)c1cccc(NCc2nnc(-c3ccncn3)n2C)c1
result: 1.0

query: Next compound up: COc1ccccc1[C@H](NC(=O)c1cccc(NCc2nnc(-c3ccncn3)n2C)c1)c1noc(C)n1
result: 0.0

query: Next compound up: CN(C)c1ncccc1CNC(=O)c1cccc(NCc2nnc(-c3ccncn3)n2C)c1
result: 1.0

query: Next compound up: CC(C)NS(=O)(=O)c1ccccc1CNC(=O)c1cccc(NCc2nnc(-c3ccncn3)n2C)c1
result: 1.0

query: Next compound up: Cn1c(CNc2cccc(C(=O)NC(CCO)c3ccccc3)c2)nnc1-c1ccncn1 (stereo not drawn)
result: 1.0

query: Next compound up: CN(CCO)S(=O)(=O)c1ccccc1CNC(=O)c1cccc(NCc2nnc(-c3ccncn3)n2C)c1
result: 1.0

query: Next compound up: COc1ncc(Br)cc1CNC(=O)c1cccc(NCc2nnc(-c3ccncc3)n2CCO)c1
result: 1.0

query: Next compound up: CC(C)C(NC(=O)c1cccc(NCc2nnc(-c3ccncn3)n2C)c1)c1nccn1C (stereo not drawn)
result: 0.0

query: Next compound up: COc1cccc([C@@H](C)NC(=O)c2cccc(NCc3nnc(-c4ccncc4)n3C)c2)c1
result: 1.0

query: Next compound up: Cn1c(CNc2cccc(C(=O)NCc3cccc4c3OCO4)c2)nnc1-c1ccncn1
result: 1.0

query: Next compound up: COc1nc(C)ccc1CNC(=O)c1cccc(NCc2nnc(-c3ccncn3)n2C)c1
result: 1.0

query: Next compound up: Cc1ncc(CNC(=O)c2cccc(NCc3nnc(-c4ccncn4)n3C)c2)c(O)n1
result: 0.0
